# protocol: Rectal suppository, plasma concentration in rats (Test Example 6)
# Assay type: in vivo, Wistar male rat
# measurement.context: rat, plasma, 1.8 mg, Witepsol W-35 suppository, 12.5% (w/v) dimethyl β-type cyclodextrin, rectal, 4 hrs
test.readout: concentration at 4 h

structure | result
O=C(NC(=O)c1ccccc1[N+](=O)[O-])Nc1ccc(Oc2ncc(Br)cn2)c(Cl)c1 | 0.99 µg/mL

----------
# protocol: Absorbability through the gut, oral, aqueous and non-aqueous dispersing solvents, plasma concentration in rats (Test Example 5)
# Assay type: in vivo, Wistar male rats
# measurement.context: rat, plasma, po, 20 mg/kg, 10% (w/v) hydroxypropylmethyl cellulose, oral 20 mg/kg, 1 hr

compound | concentration at 1 h [ng/mL]
O=C(NC(=O)c1ccccc1[N+](=O)[O-])Nc1ccc(Oc2ncc(Br)cn2)c(Cl)c1 [Compound No. 3] | 140

----------
# protocol: Absorbability through the gut, oral, aqueous and non-aqueous dispersing solvents, plasma concentration in rats (Test Example 5)
# Assay type: in vivo, Wistar male rats
# measurement.context: rat, plasma, po, 20 mg/kg, 5% (w/v) Pluronic F31/ODO, oral 20 mg/kg, 3 hrs

structure | u | concentration at 3 h
O=C(NC(=O)c1ccccc1[N+](=O)[O-])Nc1ccc(Oc2ncc(Br)cn2)c(Cl)c1 | ng/mL | 200

----------
# protocol: Solubility of Compound No. 3 in aqueous cyclodextrin solutions or polyethylene glycol 400 at 25° C. (Test Example 2)
# Format: physicochemical
# measurement.context: aqueous trimethyl β-type cyclodextrin, trimethyl β-type cyclodextrin 200 mg/ml, aqueous
test.readout: solubility (µg/mL)

structure | number
O=C(NC(=O)c1ccccc1[N+](=O)[O-])Nc1ccc(Oc2ncc(Br)cn2)c(Cl)c1 | 30.4

----------
# protocol: Absorbability through the gut, oral, aqueous and non-aqueous dispersing solvents, plasma concentration in rats (Test Example 5)
# Assay type: in vivo, Wistar male rats
# measurement.context: rat, plasma, po, 20 mg/kg, 50% (w/v) dimethyl β-type cyclodextrin, oral 20 mg/kg, 3 hrs
test.readout: concentration at 3 h

structure | test.readout | result
O=C(NC(=O)c1ccccc1[N+](=O)[O-])Nc1ccc(Oc2ncc(Br)cn2)c(Cl)c1 | concentration at 3 h | 580 ng/mL

----------
# protocol: Absorbability through the gut, oral, aqueous and non-aqueous dispersing solvents, plasma concentration in rats (Test Example 5)
# Format: in vivo, Wistar male rats
# measurement.context: rat, plasma, po, 20 mg/kg, 10% (w/v) sucrose fatty acid ester, oral 20 mg/kg, 24 hrs
test.readout: concentration at 24 h (ng/mL)

compound | number
O=C(NC(=O)c1ccccc1[N+](=O)[O-])Nc1ccc(Oc2ncc(Br)cn2)c(Cl)c1 [Compound No. 3] | 240

----------
# protocol: Solubility of Compound No. 3 in aqueous cyclodextrin solutions or polyethylene glycol 400 at 25° C. (Test Example 2)
# Format: physicochemical
# measurement.context: aqueous trimethyl β-type cyclodextrin, trimethyl β-type cyclodextrin 100 mg/ml, aqueous
# Procedure: 0.1 μmol of Compound No. 1 or No. 2 was added to 1 ml of an aqueous solution of each cyclodextrin with a concentration of from 0 to 8 mM, and the mixture was shaken at 25° C. for 100 hours. After completion of the shaking, the mixture was filtered through a millipore filter of 0.45 μm to obtain a filtrate. Separation column: As the packing material, octadecylated silica gel was filled in a stainless steel tube having an internal diameter of from 0.39 to 4.6 mm and a length of from 100 to 300 mm. […]
test.readout: solubility (µg/mL)

molecule | number
O=C(NC(=O)c1ccccc1[N+](=O)[O-])Nc1ccc(Oc2ncc(Br)cn2)c(Cl)c1 [Compound No. 3] | 13.4

----------
# protocol: Absorbability through the gut, oral, aqueous and non-aqueous dispersing solvents, plasma concentration in rats (Test Example 5)
# Format: in vivo, Wistar male rats
# measurement.context: rat, plasma, po, 20 mg/kg, 2.5% (w/v) methyl cellulose, oral 20 mg/kg, 1 hr
# Method: 20 mg of Compound No. 3 was taken into a mortar, and 5 ml of an aqueous solution containing 1.7% of β-type cyclodextrin or 2% or 40% of dimethyl β-type cyclodextrin was added under stirring to obtain a suspension of Compound No. 3. […] After the removal of protein by acetonitrile, Compound No. 3 in the plasma was quantitatively analyzed by a high speed liquid chromatography as shown in Test Example 1. […]

structure | concentration at 1 h [ng/mL]
O=C(NC(=O)c1ccccc1[N+](=O)[O-])Nc1ccc(Oc2ncc(Br)cn2)c(Cl)c1 | 60

----------
# protocol: Absorbability through the gut, oral, aqueous and non-aqueous dispersing solvents, plasma concentration in rats (Test Example 5)
# Format: in vivo, Wistar male rats
# measurement.context: rat, plasma, po, 20 mg/kg, 10% (w/v) Pluronic F68, oral 20 mg/kg, 5 hrs

compound | concentration at 5 h
O=C(NC(=O)c1ccccc1[N+](=O)[O-])Nc1ccc(Oc2ncc(Br)cn2)c(Cl)c1 [Compound No. 3] | 230 ng/mL

----------
# protocol: Absorbability through the gut, oral, aqueous and non-aqueous dispersing solvents, plasma concentration in rats (Test Example 5)
# Format: in vivo, Wistar male rats
# measurement.context: rat, plasma, po, 20 mg/kg, medium-chain length fatty acid triglyceride (ODO), oral 20 mg/kg, 1 hr

structure | concentration at 1 h / ng/mL
O=C(NC(=O)c1ccccc1[N+](=O)[O-])Nc1ccc(Oc2ncc(Br)cn2)c(Cl)c1 | 120

----------
# protocol: Absorbability through the gut, oral, aqueous and non-aqueous dispersing solvents, plasma concentration in rats (Test Example 5)
# Assay type: in vivo, Wistar male rats
# measurement.context: rat, plasma, po, 20 mg/kg, 0.5% (w/v) sodium salt of carboxymethyl cellulose (control), oral 20 mg/kg, 24 hrs

compound | concentration at 24 h / ng/mL
O=C(NC(=O)c1ccccc1[N+](=O)[O-])Nc1ccc(Oc2ncc(Br)cn2)c(Cl)c1 [Compound No. 3] | 10

----------
# protocol: Absorbability through the gut, oral, aqueous and non-aqueous dispersing solvents, plasma concentration in rats (Test Example 5)
# Type: in vivo, Wistar male rats
# measurement.context: rat, plasma, po, 20 mg/kg, 2.5% (w/v) methyl cellulose, oral 20 mg/kg, 24 hrs

molecule | concentration at 24 h (ng/mL)
O=C(NC(=O)c1ccccc1[N+](=O)[O-])Nc1ccc(Oc2ncc(Br)cn2)c(Cl)c1 [Compound No. 3] | 30

----------
# protocol: Rectal suppository, plasma concentration in rats (Test Example 6)
# Assay type: in vivo, Wistar male rat
# measurement.context: rat, plasma, 1.8 mg, Witepsol W-35 suppository, 12.5% (w/v) dimethyl β-type cyclodextrin, rectal, 0.5 hr
# Description: A Witepsol W-35 suppository (weight: about 45 mg) comprising 1.8 mg of Compound No. 3 and 12.5% (weight/volume) of dimethyl β-type cyclodextrin, was administered to the rectum of each Wistar male rat having a body weight of about 90 g (a group of three rats). Then, the blood was periodically sampled from the jugular vein, and the concentration of Compound No. 3 in the plasma was measured. To a control group, a suppository contained no cyclodextrin was administered. […]

structure | concentration at 0.5 h / ng/mL
O=C(NC(=O)c1ccccc1[N+](=O)[O-])Nc1ccc(Oc2ncc(Br)cn2)c(Cl)c1 | 320

----------
# protocol: Absorbability through the gut, oral, aqueous and non-aqueous dispersing solvents, plasma concentration in rats (Test Example 5)
# Format: in vivo, Wistar male rats
# measurement.context: rat, plasma, po, 20 mg/kg, 10% (w/v) sucrose fatty acid ester, oral 20 mg/kg, 5 hrs
test.readout: concentration at 5 h (ng/mL)

structure | number
O=C(NC(=O)c1ccccc1[N+](=O)[O-])Nc1ccc(Oc2ncc(Br)cn2)c(Cl)c1 | 180

----------
# protocol: Absorbability through the gut, oral, aqueous and non-aqueous dispersing solvents, plasma concentration in rats (Test Example 5)
# Assay type: in vivo, Wistar male rats
# measurement.context: rat, plasma, po, 20 mg/kg, 0.5% (w/v) sodium salt of carboxymethyl cellulose (control), oral 20 mg/kg, 1 hr

molecule | u | concentration at 1 h
O=C(NC(=O)c1ccccc1[N+](=O)[O-])Nc1ccc(Oc2ncc(Br)cn2)c(Cl)c1 [Compound No. 3] | ng/mL | 30

----------
# protocol: Absorbability through the gut, oral, aqueous and non-aqueous dispersing solvents, plasma concentration in rats (Test Example 5)
# Assay type: in vivo, Wistar male rats
# measurement.context: rat, plasma, po, 20 mg/kg, 5% (w/v) sucrose fatty acid ester/refined sesame oil, oral 20 mg/kg, 5 hrs
test.readout: concentration at 5 h (ng/mL)

compound | test.readout | number
O=C(NC(=O)c1ccccc1[N+](=O)[O-])Nc1ccc(Oc2ncc(Br)cn2)c(Cl)c1 [Compound No. 3] | concentration at 5 h | 570

----------
# protocol: Oral capsules, plasma concentration in beagle dogs (Test Example 7)
# Assay type: in vivo
# measurement.context: dog, plasma, po, 20 mg/kg, polyethylene glycol 400 capsules of Example 3, oral 20 mg/kg, 4 hrs

structure | concentration at 4 h
O=C(NC(=O)c1ccccc1[N+](=O)[O-])Nc1ccc(Oc2ncc(Br)cn2)c(Cl)c1 | 1110 ng/mL
